System: 885512-296-R-J2-PDC complex spheroid growth, % test/control
experimental.protocol: Anticancer human tumor 885512-296-R-J2-PDC patient-derived breast carcinoma cell line growth inhibition [AhR]
test.context: second compound 0.1 µM; first compound 0.00316 µM; hits give low values
Quick list: viability, T/C per entry.

molecule | reading.unit | viability, T/C
CC[C@@]1(O)C(=O)OCc2c1cc1n(c2=O)Cc2cc3c(CN(C)C)c(O)ccc3nc2-1 + Cc1cncc(-c2nc(NCCc3c[nH]c4ccccc34)c3ncn(C(C)C)c3n2)c1 | % | 67.6
Nc1ncn(C2CC(O)C(CO)O2)c(=O)n1 (configuration not stated) + Cc1ccccc1N=Nc1ccc(NC(=O)c2ccnn2C)c(C)c1 | % | 114
Cn1ncnc1C1c2n[nH]c(=O)c3cc(F)cc(c23)NC1c1ccc(F)cc1 (configuration not stated) + CC(CO)NC(=O)c1cc(-c2ccc(Cl)cc2)nn(-c2cnn(C)c2)c1=O | % | 103
CC[C@@]1(O)C(=O)OCc2c1cc1n(c2=O)Cc2cc3c(CN(C)C)c(O)ccc3nc2-1 + Cc1ccccc1N=Nc1ccc(NC(=O)c2ccnn2C)c(C)c1 | % | 67.5
CC1COCCN1c1cc(-c2ccnn2C)c2ccnc(-c3ccn[nH]3)c2n1 (configuration not stated) + Cc1ccccc1N=Nc1ccc(NC(=O)c2ccnn2C)c(C)c1 | % | 97.7
CC[C@@]1(O)C(=O)OCc2c1cc1n(c2=O)Cc2cc3c(CN(C)C)c(O)ccc3nc2-1 + CC(CO)NC(=O)c1cc(-c2ccc(Cl)cc2)nn(-c2cnn(C)c2)c1=O | % | 87.9
CC1COCCN1c1cc(-c2ccnn2C)c2ccnc(-c3ccn[nH]3)c2n1 (configuration not stated) + Cc1cncc(-c2nc(NCCc3c[nH]c4ccccc34)c3ncn(C(C)C)c3n2)c1 | % | 99.4
CC1COCCN1c1cc(-c2ccnn2C)c2ccnc(-c3ccn[nH]3)c2n1 (configuration not stated) + CC(CO)NC(=O)c1cc(-c2ccc(Cl)cc2)nn(-c2cnn(C)c2)c1=O | % | 112
Nc1ncn(C2CC(O)C(CO)O2)c(=O)n1 (configuration not stated) + Cc1cncc(-c2nc(NCCc3c[nH]c4ccccc34)c3ncn(C(C)C)c3n2)c1 | % | 93.5
Nc1ncn(C2CC(O)C(CO)O2)c(=O)n1 (configuration not stated) + CC(CO)NC(=O)c1cc(-c2ccc(Cl)cc2)nn(-c2cnn(C)c2)c1=O | % | 94.9
Cn1ncnc1C1c2n[nH]c(=O)c3cc(F)cc(c23)NC1c1ccc(F)cc1 (configuration not stated) + Cc1cncc(-c2nc(NCCc3c[nH]c4ccccc34)c3ncn(C(C)C)c3n2)c1 | % | 99.8
Cn1ncnc1C1c2n[nH]c(=O)c3cc(F)cc(c23)NC1c1ccc(F)cc1 (configuration not stated) + Cc1ccccc1N=Nc1ccc(NC(=O)c2ccnn2C)c(C)c1 | % | 89.9

----------
Test system: 885512-296-R-J2-PDC complex spheroid growth, % test/control
experimental.protocol: Anticancer human tumor 885512-296-R-J2-PDC cell line growth inhibition [AhR];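 also: spheroids exposed to compounds for seven days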
test.context: second compound 3.16 µM; first compound 0.000949 µM; hits give low values
Quick list: viability, T/C per entry.

compound | viability, T/C, %
Nc1ncn(C2CC(O)C(CO)S2)c(=O)n1 (stereo unspecified) + Cc1cncc(-c2nc(NCCc3c[nH]c4ccccc34)c3ncn(C(C)C)c3n2)c1 | 47.4
CCc1c2c(nc3ccc(O)cc13)-c1cc3c(c(=O)n1C2)COC(=O)[C@]3(O)CC + Cc1cncc(-c2nc(NCCc3c[nH]c4ccccc34)c3ncn(C(C)C)c3n2)c1 | 14.3
CC(C)CC(NC(=O)C(Cc1ccccc1)NC(=O)c1cnccn1)B(O)O (stereo unspecified) + Cc1ccccc1N=Nc1ccc(NC(=O)c2ccnn2C)c(C)c1 | 82
CCc1c2c(nc3ccc(O)cc13)-c1cc3c(c(=O)n1C2)COC(=O)[C@]3(O)CC + Cc1ccccc1N=Nc1ccc(NC(=O)c2ccnn2C)c(C)c1 | 17.2
Nc1ncn(C2CC(O)C(CO)S2)c(=O)n1 (stereo unspecified) + CC(CO)NC(=O)c1cc(-c2ccc(Cl)cc2)nn(-c2cnn(C)c2)c1=O | 97.9
CC(C)CC(NC(=O)C(Cc1ccccc1)NC(=O)c1cnccn1)B(O)O (stereo unspecified) + CC(CO)NC(=O)c1cc(-c2ccc(Cl)cc2)nn(-c2cnn(C)c2)c1=O | 89.4
